Consider the following sequences; for each one, report its self-splicing fitness (ln).
experiment: self-splicing fitness, log relative to wild type (ln ratio); higher = more splicing; Tetrahymena group I intron in knt gene, E. coli kanamycin selection, DiMSum; sequences stand for … in CUCUCU…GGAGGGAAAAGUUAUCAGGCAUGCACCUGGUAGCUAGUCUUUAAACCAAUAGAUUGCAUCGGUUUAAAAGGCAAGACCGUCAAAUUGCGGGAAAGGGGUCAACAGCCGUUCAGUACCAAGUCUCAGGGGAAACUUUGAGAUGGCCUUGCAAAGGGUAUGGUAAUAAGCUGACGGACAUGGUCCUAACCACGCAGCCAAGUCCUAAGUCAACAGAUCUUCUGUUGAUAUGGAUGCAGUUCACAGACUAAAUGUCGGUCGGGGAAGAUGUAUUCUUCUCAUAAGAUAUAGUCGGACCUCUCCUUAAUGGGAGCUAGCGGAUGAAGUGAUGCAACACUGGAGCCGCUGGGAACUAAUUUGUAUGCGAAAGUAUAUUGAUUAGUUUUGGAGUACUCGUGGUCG; settings: 30 °C;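 further: selection with 25 µg/mL kanamycin versus none on LB agar overnight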

Task: Need self-splicing fitness (ln), item `GCGAAGCAAUAUUACGCUAU`
Result: -2.45

Task: Need self-splicing fitness (ln), item `UAAUAGCAAUAUUACGAGAC`
Result: -3.38

Task: Need self-splicing fitness (ln), item `CCGGAGCAAUAUUACGGUAG`
Result: -2.71

Task: Need self-splicing fitness (ln), item `GAGGAGCAAUAUUACGACUU`
Result: -2.79

Task: Need self-splicing fitness (ln), item `GAAAAGCAAUAUUACGACAG`
Result: -2.55

Task: Need self-splicing fitness (ln), item `UAGGAGCAAUAUUACGUAAG`
Result: -3.22

Task: Need self-splicing fitness (ln), item `ACACAGCAAUAUUACGCUGA`
Result: -2.42

Task: Need self-splicing fitness (ln), item `UCUCAGCAAUAUUACGAAAG`
Result: -1.9

Task: Need self-splicing fitness (ln), item `AUAAAGCAAUAUUACGACCU`
Result: -0.0242

Task: Need self-splicing fitness (ln), item `GAAGAGCAAUAUUACGAUUU`
Result: -1.31

Task: Need self-splicing fitness (ln), item `GCCCAGCAAUAUUACGGUGC`
Result: -3.13

Task: Need self-splicing fitness (ln), item `AAAAAGCAAUAUUACGAUGU`
Result: -0.893

Task: Need self-splicing fitness (ln), item `CUCCAGCAAUAUUACGUACA`
Result: -3.85

Task: Need self-splicing fitness (ln), item `ACGAAGCAAUAUUACGACAA`
Result: -0.701

Task: Need self-splicing fitness (ln), item `UCAGAGCAAUAUUACGCGAC`
Result: -3.71

Task: Need self-splicing fitness (ln), item `ACGUAGCAAUAUUACGGAGG`
Result: -4.05

Task: Need self-splicing fitness (ln), item `GGCCAGCAAUAUUACGGCCA`
Result: -2.42

Task: Need self-splicing fitness (ln), item `UACGAGCAAUAUUACGGACA`
Result: -3.34

Task: Need self-splicing fitness (ln), item `AUAUAGCAAUAUUACGCCCU`
Result: -0.155

Task: Need self-splicing fitness (ln), item `UACGAGCAAUAUUACGCCCG`
Result: -3.1

Task: Need self-splicing fitness (ln), item `UGGAAGCAAUAUUACGACGA`
Result: 0.0371

Task: Need self-splicing fitness (ln), item `AGAUAGCAAUAUUACGCUCU`
Result: -3.31

Task: Need self-splicing fitness (ln), item `GCGCAGCAAUAUUACGACUG`
Result: -1.91

Task: Need self-splicing fitness (ln), item `UUUAAGCAAUAUUACGGGGC`
Result: -2.77

Task: Need self-splicing fitness (ln), item `CGCGAGCAAUAUUACGCGAU`
Result: -3.96

Task: Need self-splicing fitness (ln), item `AUACAGCAAUAUUACGGAAG`
Result: -3.36

Task: Need self-splicing fitness (ln), item `GAUUAGCAAUAUUACGUCUA`
Result: -1.14

Task: Need self-splicing fitness (ln), item `GACUAGCAAUAUUACGAGAA`
Result: -1.29

Task: Need self-splicing fitness (ln), item `GACGAGCAAUAUUACGAUCG`
Result: -2.3

Task: Need self-splicing fitness (ln), item `GGCUAGCAAUAUUACGUUUC`
Result: -0.818

Task: Need self-splicing fitness (ln), item `CGGAAGCAAUAUUACGUCAG`
Result: -1.33

Task: Need self-splicing fitness (ln), item `UAUAAGCAAUAUUACGGGUC`
Result: -3.27

Task: Need self-splicing fitness (ln), item `AACGAGCAAUAUUACGUACC`
Result: -2.91

Task: Need self-splicing fitness (ln), item `AGUAAGCAAUAUUACGUUCG`
Result: -1.92

Task: Need self-splicing fitness (ln), item `CCUAAGCAAUAUUACGGUGU`
Result: -4.62

Task: Need self-splicing fitness (ln), item `AUGAAGCAAUAUUACGCUCC`
Result: -0.958

Task: Need self-splicing fitness (ln), item `UGCCAGCAAUAUUACGUACU`
Result: 0.158

Task: Need self-splicing fitness (ln), item `GUUGAGCAAUAUUACGGUAA`
Result: -2.51

Task: Need self-splicing fitness (ln), item `CAAAAGCAAUAUUACGCUUG`
Result: -3.3

Task: Need self-splicing fitness (ln), item `GAUUAGCAAUAUUACGCCUA`
Result: -0.405

Task: Need self-splicing fitness (ln), item `CCCGAGCAAUAUUACGUAGU`
Result: -3.11

Task: Need self-splicing fitness (ln), item `GCGAAGCAAUAUUACGGAGC`
Result: -2.69

Task: Need self-splicing fitness (ln), item `CCUCAGCAAUAUUACGCUAA`
Result: -2.79

Task: Need self-splicing fitness (ln), item `UGCAAGCAAUAUUACGUACU`
Result: -0.936

Task: Need self-splicing fitness (ln), item `UUUUAGCAAUAUUACGGGUA`
Result: -1.75

Task: Need self-splicing fitness (ln), item `GGCCAGCAAUAUUACGCGGC`
Result: -3.46

Task: Need self-splicing fitness (ln), item `CAGCAGCAAUAUUACGCACA`
Result: -0.847

Task: Need self-splicing fitness (ln), item `GACUAGCAAUAUUACGUCAC`
Result: -3.36

Task: Need self-splicing fitness (ln), item `AGUAAGCAAUAUUACGGAAG`
Result: -2.55

Task: Need self-splicing fitness (ln), item `UACUAGCAAUAUUACGCGUU`
Result: -2.33

Task: Need self-splicing fitness (ln), item `CAAAAGCAAUAUUACGUCAG`
Result: -0.464

Task: Need self-splicing fitness (ln), item `ACGUAGCAAUAUUACGCGAC`
Result: -3.16

Task: Need self-splicing fitness (ln), item `UGGAAGCAAUAUUACGAGCU`
Result: -1.95

Task: Need self-splicing fitness (ln), item `UACGAGCAAUAUUACGUGCA`
Result: -3.16

Task: Need self-splicing fitness (ln), item `AUCUAGCAAUAUUACGAUCC`
Result: -1.97

Task: Need self-splicing fitness (ln), item `GCCGAGCAAUAUUACGUCGC`
Result: -4.48

Task: Need self-splicing fitness (ln), item `GCCCAGCAAUAUUACGGGGG`
Result: -3.34

Task: Need self-splicing fitness (ln), item `AUAGAGCAAUAUUACGUGGA`
Result: -3.98

Task: Need self-splicing fitness (ln), item `AACAAGCAAUAUUACGGUAU`
Result: -1.61

Task: Need self-splicing fitness (ln), item `AAGAAGCAAUAUUACGCUAA`
Result: -1.69

Task: Need self-splicing fitness (ln), item `ACUUAGCAAUAUUACGGACC`
Result: -0.607

Task: Need self-splicing fitness (ln), item `UAUGAGCAAUAUUACGCCGC`
Result: -1.9

Task: Need self-splicing fitness (ln), item `GUCCAGCAAUAUUACGUUGU`
Result: -0.537

Task: Need self-splicing fitness (ln), item `GCUUAGCAAUAUUACGUUUA`
Result: -1.73

Task: Need self-splicing fitness (ln), item `CGGCAGCAAUAUUACGUCCC`
Result: -0.557

Task: Need self-splicing fitness (ln), item `CCAGAGCAAUAUUACGAGGC`
Result: -2.82

Task: Need self-splicing fitness (ln), item `GGCAAGCAAUAUUACGGGGG`
Result: -2.86

The measured values listed here are drawn from the supplement of paper PMC7877785.
